assay: Lipophilic-hydrophilic balance, Rm of the compound by partition chromatography; format: physicochemical
Everything with Rm lower than 0.08 is 0.0; everything else, including exactly 0.08, is 1.0.

molecular.string	group.label
CCC[n+]1cccc(NC(=O)c2ccc(NC(=O)c3ccc(C(=O)Nc4ccc(C(=O)Nc5ccc[n+](CCC)c5)cc4)cc3)cc2)c1.Cc1ccc(S(=O)(=O)[O-])cc1.Cc1ccc(S(=O)(=O)[O-])cc1	1.0
CC[n+]1cccc(NC(=O)c2ccc(NC(=O)c3ccc(C(=O)Nc4ccc(C(=O)Nc5ccc[n+](CC)c5)cc4)c(C)c3)cc2)c1.Cc1ccc(S(=O)(=O)[O-])cc1.Cc1ccc(S(=O)(=O)[O-])cc1	1.0
CC[n+]1cc(-c2ccc(NC(=O)/C=C/c3ccc(C(=O)Nc4ccc(-c5c[n+](CC)c(N)nc5N)cc4)cc3)cc2)c(N)nc1N.Cc1ccc(S(=O)(=O)[O-])cc1.Cc1ccc(S(=O)(=O)[O-])cc1	0.0
CCC[n+]1ccc(Nc2ccc(NC(=O)c3ccc(Nc4cc[n+](CCC)c5ccc(N)cc45)cc3)cc2N)cc1.[I-].[I-]	1.0
C[n+]1ccc(Nc2ccc(NC(=O)c3ccc(Nc4cc[n+](C)c5ccc(Cl)cc45)cc3)cc2)cc1.Cc1ccc(S(=O)(=O)[O-])cc1.Cc1ccc(S(=O)(=O)[O-])cc1	1.0
C[n+]1ccc(Nc2ccc(NC(=O)Nc3ccc(Nc4cc[n+](C)c5ccc(N)cc45)cc3)cc2)cc1.Cc1ccc(S(=O)(=O)[O-])cc1.Cc1ccc(S(=O)(=O)[O-])cc1	1.0
C[n+]1ccc(Nc2ccc(NC(=O)c3ccc(Nc4cc[n+](C)c5c(N)cccc45)cc3)cc2)cc1.[I-].[I-]	0.0
C[n+]1ccc(Nc2ccc(NC(=O)c3ccc(Nc4nc[n+](C)c5ccc(N)cc45)cc3)cc2)cc1.Cc1ccc(S(=O)(=O)[O-])cc1.Cc1ccc(S(=O)(=O)[O-])cc1	1.0
CC[n+]1ccc(Nc2ccc(NC(=O)c3ccc(Nc4cc[n+](CC)c5ccc(N)cc45)cc3)cc2)cc1.[Br-].[Br-]	1.0
CCCC[n+]1cccc2cc(NC(=O)c3ccc(NC(=O)c4ccc5c(ccc[n+]5CCCC)c4)cc3)ccc21.Cc1ccc(S(=O)(=O)[O-])cc1.Cc1ccc(S(=O)(=O)[O-])cc1	1.0
CCC[n+]1cccc(NC(=O)c2ccc(NC(=O)/C=C/c3ccc(C(=O)Nc4ccc(C(=O)Nc5ccc[n+](CCC)c5)cc4)cc3)cc2)c1.Cc1ccc(S(=O)(=O)[O-])cc1.Cc1ccc(S(=O)(=O)[O-])cc1	0.0
CCCC[n+]1cccc2cc(NC(=O)Cc3ccc(CC(=O)Nc4ccc5c(ccc[n+]5CCCC)c4)cc3)ccc21.Cc1ccc(S(=O)(=O)[O-])cc1.Cc1ccc(S(=O)(=O)[O-])cc1	1.0
C[n+]1ccc(Nc2ccc(S(=O)(=O)Nc3ccc(Nc4c5ccccc5[n+](C)c5cc(N)ccc45)cc3)cc2)cc1.[O-][Cl+3]([O-])([O-])[O-].[O-][Cl+3]([O-])([O-])[O-]	1.0
CC[n+]1cccc(NC(=O)c2ccc(NC(=O)c3cccc(C(=O)Nc4ccc(C(=O)Nc5ccc[n+](CC)c5)cc4)c3)cc2)c1.Cc1ccc(S(=O)(=O)[O-])cc1.Cc1ccc(S(=O)(=O)[O-])cc1	1.0
C[n+]1cccc2cc(NC(=O)c3ccc(NC(=O)c4ccc(C(=O)Nc5ccc6c(ccc[n+]6C)c5)cc4)cc3)ccc21.Cc1ccc(S(=O)(=O)[O-])cc1.Cc1ccc(S(=O)(=O)[O-])cc1	0.0
CC[n+]1cccc(NC(=O)c2ccc(NC(=O)c3ccc(C(=O)Nc4ccc(C(=O)Nc5ccc[n+](CC)c5)cc4C)cc3)c(C)c2)c1.Cc1ccc(S(=O)(=O)[O-])cc1.Cc1ccc(S(=O)(=O)[O-])cc1	1.0
COc1cc(C(=O)Nc2ccc(C(=O)Nc3ccc[n+](C)c3)cc2)ccc1C(=O)Nc1ccc(C(=O)Nc2ccc[n+](C)c2)cc1.Cc1ccc(S(=O)(=O)[O-])cc1.Cc1ccc(S(=O)(=O)[O-])cc1	1.0
Br.C/C(=N\NC(=N)N)c1ccc(NC(=O)c2ccc(Nc3cc[n+](C)c4ccc(N)cc34)cc2N)cc1.[Br-]	0.0
C[n+]1cc(-c2ccc(NC(=O)c3ccc(Nc4cc[n+](C)c5ccc(N)cc45)cc3N)cc2)c(N)nc1N.Cc1ccc(S(=O)(=O)[O-])cc1.Cc1ccc(S(=O)(=O)[O-])cc1	0.0
Br.C/C(=N\NC(=N)N)c1ccc(NC(=O)c2ccc(Nc3cc[n+](C)c4ccc(N)cc34)cc2)cc1.[Br-]	0.0

Every entry's value here was drawn from ChEMBL document CHEMBL3228010.
